molecular target: c-Kit(V654A) (Homo sapiens, UniProt P10721, V654A); construct: amino acids 544-end containing the V654A mutation; GST (N); experiment: c-Kit(V654A) assay; conditions: recombinant human c-Kit aa 544-end, 200 μM ATP, 1.4E-06 means 1.4×10^−6, read-out: Inhibition (IC50) of c-KIT (V654A)
Sequence (P10721 544-976 V654A): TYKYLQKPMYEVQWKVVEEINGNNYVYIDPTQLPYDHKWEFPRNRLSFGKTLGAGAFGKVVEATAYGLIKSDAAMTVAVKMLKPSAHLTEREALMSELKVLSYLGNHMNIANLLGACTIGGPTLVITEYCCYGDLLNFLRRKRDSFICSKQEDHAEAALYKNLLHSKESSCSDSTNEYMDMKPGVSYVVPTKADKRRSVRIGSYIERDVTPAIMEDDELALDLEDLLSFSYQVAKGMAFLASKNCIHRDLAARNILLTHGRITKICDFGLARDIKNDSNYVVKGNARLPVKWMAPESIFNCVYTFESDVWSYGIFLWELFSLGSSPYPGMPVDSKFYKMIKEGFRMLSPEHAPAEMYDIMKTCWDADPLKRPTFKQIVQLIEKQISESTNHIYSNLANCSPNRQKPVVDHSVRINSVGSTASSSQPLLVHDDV
attributeMeasured: IC50 (nM)

[
  {
    "molecule": "C=C(C)c1ccc(-n2cc(-c3cc4ccccc4[nH]c3=O)nn2)cc1",
    "unitName": "nM",
    "IC50": 120
  },
  {
    "molecule": "O=C(c1ccc(-n2cc(-c3cc4cc(F)c(F)cc4[nH]c3=O)nn2)cc1)N1CCNCC1",
    "unitName": "nM",
    "IC50": 41
  },
  {
    "molecule": "O=C(c1ccc(-n2cc(-c3cc4cc(F)ccc4[nH]c3=O)nn2)cc1)N1CCC[C@H]1CN1CCCC1",
    "unitName": "nM",
    "IC50": 14
  },
  {
    "molecule": "CN1CCN(C(=O)COc2ccc(-n3cc(-c4cc5cc(F)ccc5[nH]c4=O)nn3)cc2)CC1",
    "unitName": "nM",
    "IC50": 30
  },
  {
    "molecule": "CO[C@@H]1CCN(S(=O)(=O)c2ccc(-n3cc(-c4cc5cc(F)ccc5[nH]c4=O)nn3)cc2)C1",
    "unitName": "nM",
    "IC50": 19
  }
]

P. COCCOC[C@@H]1CCN(C(=O)c2ccc(-n3cc(-c4cc5cc(F)c(F)cc5[nH]c4=O)nn3)cc2)C1
Q. O=C(c1ccc(-n2cc(-c3cc4cc(Cl)ccc4[nH]c3=O)nn2)cc1)N1CCC(N2CCC(O)CC2)C1 (stereo not shown)
R. O=C(c1ccc(-n2cc(-c3cc4cc(F)ccc4[nH]c3=O)nn2)cc1)N1CCNCC1
S. CO[C@H](C)C(=O)N(C)c1ccc(-n2cc(-c3cc4cc(F)ccc4[nH]c3=O)nn2)cc1
Please give the order of these molecules when sorted by IC50, largest value leading. Please list the labels in the order you were asked to rank them.
P, Q, S, R

I. CCN(CC)[C@@H]1CCCN(C(=O)c2ccc(-n3cc(-c4cc5cc(F)ccc5[nH]c4=O)nn3)cc2)C1
II. CN1CCC(CNC(=O)c2ccc(-n3cc(-c4cc5cc(F)ccc5[nH]c4=O)nn3)cc2)CC1
Of I and II , whose reported IC50 is numerically smaller? Reply with the label of the item you choose.
II
(II: 27 nM, I: 39 nM)

1. O=C(c1ccc(-n2cc(-c3cc4cc(F)ccc4[nH]c3=O)nn2)cc1)N1CC[C@H](O)C1
2. CO[C@H]1CN(C(=O)c2ccc(-n3cc(-c4cc5cc(F)ccc5[nH]c4=O)cn3)cc2)C[C@@H]1OC
When the recorded IC50 values are compared, which is smaller: that of 1 or that of 2 ? Refer to your chosen item by its label in the answer.
1
(1: 13 nM, 2: 37 nM)

I. NC1CCN(C(=O)c2ccc(-n3cc(-c4cc5cc(F)ccc5[nH]c4=O)nn3)cc2)C1 (stereo in doubt)
II. COCCCN1CCN(C(=O)c2ccc(-n3cc(-c4cc5cc(F)cnc5[nH]c4=O)nn3)cc2)CC1
Hi, I'm comparing I with II and wondering which one has the bigger number for IC50. Any idea? State your choice using its label.
II

1. CO[C@@H]1CC[C@H](Oc2ccc(-n3cc(-c4cc5cc(Cl)ccc5[nH]c4=O)nn3)cc2)C1 (stereo in doubt)
2. CN1CCC(C(=O)c2ccc(-n3cc(-c4cc5cc(F)c(F)cc5[nH]c4=O)nn3)cc2)CC1
3. O=C(c1ccc(-n2cc(-c3cc4cc(Cl)ccc4[nH]c3=O)nn2)cc1)N1C[C@@H](O)CO1
Please list the entries, largest IC50 first. Reply format: the labels, ordered as requested.
1, 3, 2
(1: 96 nM, 3: 45 nM, 2: 8.4 nM)

A. O=C(c1ccc(-n2cc(-c3cc4c(F)cc(F)cc4[nH]c3=O)nn2)cc1)N1CCOCC1
B. COC(=O)c1cc(-n2cc(-c3cc4ccccc4[nH]c3=O)nn2)ccn1
Identify the entry with the larger IC50. Options: A and B // respond with label for picked entry
B

I. CN(C)C[C@H]1CCN(C(=O)c2ccc(-n3cc(-c4cc5cc(F)ccc5[nH]c4=O)nn3)cc2)C1
II. COc1ccc2cc(-c3cn(-c4ccc(C(=O)N5CCOCC5)cc4)nn3)c(=O)[nH]c2c1
Looking at recorded values for IC50, does I or II come in lower? The response must carry the label of the picked entry.
I
